The measured values listed here are drawn from ChEMBL document CHEMBL4138245.

Tested on: MCF7
Assay: Antiproliferative activity against human MCF7 cells after 48 hrs by SRB assay
Type: functional, cell-based
Conditions: MCF7, 48 h
pIC50: −log10 of the molar value.
# Lookup of reported pIC50 keyed by entry
RECORDED_METRIC: pIC50

> print(dat)
                                   compound  recorded.metric  numeric.readout
1  COc1ccc2nc3cc(Cl)ccc3c(NCCCN3C(=O)CCSC3c3ccc(C)cc3)c2c1 (centres undefined)            pIC50             5.26
2  COc1ccc2nc3cc(Cl)ccc3c(NCCCN3C(=O)CCSC3c3cccs3)c2c1 (centres undefined)            pIC50             6.16
3  COc1ccc2nc3cc(Cl)ccc3c(NCCCN3C(=O)CCSC3c3ccc(Cl)cc3Cl)c2c1 (centres undefined)            pIC50             5.73
4  CCN(CC)CCCC(C)Nc1c2ccc(Cl)cc2nc2ccc(OC)cc12 (centres undefined) [QUINACRINE]            pIC50             5.38
5  COc1ccc2nc3cc(Cl)ccc3c(NCCCN3C(=O)CCSC3c3ccccc3F)c2c1 (centres undefined)            pIC50             5.64
6  COc1ccc2nc3cc(Cl)ccc3c(NCCCN3C(=O)CCSC3c3ccc([N+](=O)[O-])cc3)c2c1 (centres undefined)            pIC50             5.15
7  COc1ccc2nc3cc(Cl)ccc3c(NCCCN3C(=O)CCSC3C3CCCCC3)c2c1 (centres undefined)            pIC50             5.30
8  COc1ccc2nc3cc(Cl)ccc3c(NCCCN3C(=O)CCSC3c3ccccc3)c2c1 (centres undefined)            pIC50             5.32
9  COc1ccc2nc3cc(Cl)ccc3c(NCCCN3C(=O)CCSC3c3c(F)cccc3Cl)c2c1 (centres undefined)            pIC50             5.37
